Assay: S16 Schwann cell viability assay (CellTiter-Glo assay) (AID 624031);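 further: native untransfected S16 rat Schwann cells; cellular ATP luminescence as a viability measure; plate controls were DMSO-treated cells for no effect and cell-free wells for full effect; nearly all actives have a fitted effect of over 70% in size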
Settings: S16 rat Schwann cells viability, 24 h; series mostly up to 57.5 µM
Inconclusive results are not listed. Calls of active or inactive are those of the source. The call rests on the fitted dose curve; in most records, active means well fitted cell-killing curve with a large enough effect; inconclusive means small, poorly fitted or top-dose-only effect, or effect the other way; inactive means flat fitted curve, though single readings scatter.
Form entry, call: pick from 1 (yes) for active, 0 (no) for inactive

Previously resolved entries follow.
{"Compound": "CC(C)O", "Label class": "0 (no)"}
{"Compound": "CO/N=C(\\C(=O)N[C@@H]1C(=O)N2C(C(=O)[O-])=C(C[n+]3cccc4c3CCC4)CS[C@H]12)c1csc(N)n1", "Label class": "0 (no)"}
{"Compound": "OCCOCCOCCO", "Label class": "0 (no)"}

QUERY: # outcome recorded in this test, key = CN(Cc1ccccc1)Cc1ccccc1
RESULT: 0 (no)

###

Experiment: qHTS assay to identify small molecule inhibitors of chordoma cells - UCH-1 (AID 1259355); further: nearly all actives have a fitted effect of over 55% in size
Conditions: UCH-1 chordoma viability, CellTiter-Glo, 48 h, combination, with auranofin plus four topoisomerase inhibitors; series mostly up to 46.1 µM
Source text: NIH Chemical Genomics Center [NCGC] Chordoma is a rare and slow growing tumor that can occur anywhere along the spine, from the base of the skull to the tailbone. Current treatment options for chordoma is surgery and radiation therapy for those who are not candidates for surgery. But chordomas tend to return in the same location or surrounding areas of the original tumor after surgery and/or radiation. Chemotherapy can slow down the progression of the tumor. […]
Results filed as inconclusive are left out. Calls of active or inactive are those of the source. Calls follow the shape of the dose curve; as a rule, active = well fitted cell-killing curve with a large enough effect; inconclusive = small, poorly fitted or top-dose-only effect, or effect the other way; inactive = no such curve, though single readings can be large or run the other way.
Form entry, call: pick from t for active, f for inactive

Previously resolved entries follow.
{"Molecule": "O=C(OC[C@H]1O[C@@H](OC(=O)c2cc(O)c(O)c(OC(=O)c3cc(O)c(O)c(O)c3)c2)[C@H](OC(=O)c2cc(O)c(O)c(OC(=O)c3cc(O)c(O)c(O)c3)c2)[C@@H](OC(=O)c2cc(O)c(O)c(OC(=O)c3cc(O)c(O)c(O)c3)c2)[C@@H]1OC(=O)c1cc(O)c(O)c(OC(=O)c2cc(O)c(O)c(O)c2)c1)c1cc(O)c(O)c(OC(=O)c2cc(O)c(O)c(O)c2)c1", "Label class": "t"}
{"Molecule": "COC(=O)CCC[N+](C)(C)C", "Label class": "f"}
{"Molecule": "c1ccc2c(c1)OCC(CN1CCCCC1)O2 (configuration not stated)", "Label class": "f"}
{"Molecule": "CC(=O)Nc1ccc(NC(=S)NC(=O)c2ccc(C(C)(C)C)cc2)cc1", "Label class": "f"}
{"Molecule": "NC(=O)Oc1ccc(Cc2ccccc2)cc1", "Label class": "f"}
{"Molecule": "O=C(O)c1cc(O)c2c(c1)[C@H]([C@H]1c3cc(C(=O)O)cc(O)c3C(=O)c3c(O[C@@H]4O[C@H](CO)[C@@H](O)[C@H](O)[C@H]4O)cccc31)c1cccc(O[C@@H]3O[C@H](CO)[C@@H](O)[C@H](O)[C@H]3O)c1C2=O", "Label class": "f"}

QUERY: # outcome recorded in this test, key = CC(C)C[C@H](NC(=O)[C@@H](Cc1c[nH]c2ccccc12)NC(=O)[C@H](Cc1ccc(O)cc1)NC(=O)[C@H](CO)NC(=O)[C@H](Cc1c[nH]c2ccccc12)NC(=O)[C@H](Cc1cnc[nH]1)NC(=O)[C@@H]1CCC(=O)N1)C(=O)N[C@@H](CCCN=C(N)N)C(=O)N1CCC[C@@H]1C(=O)NCC(N)=O
RESULT: f

QUERY: # outcome recorded in this test, key = C[C@H](NCCc1ccc(O)cc1)[C@H](O)c1ccc(O)cc1
RESULT: f

QUERY: # outcome recorded in this test, key = CCCCO
RESULT: f

QUERY: # outcome recorded in this test, key = O=C(O)Cc1cc(I)c(Oc2ccc(O)c(I)c2)c(I)c1
RESULT: f

QUERY: # outcome recorded in this test, key = C=CC(=O)O
RESULT: f

QUERY: # outcome recorded in this test, key = CC(=O)[C@H]1CC[C@H]2[C@@H]3C=CC4=CC(=O)CC[C@@]4(C)[C@H]3CC[C@]12C
RESULT: f

###

Test system: KB-3-1
Experiment: Cytotoxic Profiling of Annotated Libraries Using Quantitative High-Throughput Screening (AID 1296008); further: on the % scale 0 is the no-effect control and ±100 the full control effect; nearly all actives have a fitted effect of over 60% in size
Settings: Five cell lines viability, CellTiter-Glo ATP luminescence, 48-72 h; stronger effect = lower value
Results filed as inconclusive are left out.
Quantity: max response (%)
Answers are plain numbers, in %.

List reported max response for each of these compounds:
1. CC1(C)S[C@@H]2[C@H](NC(=O)C3(N)CCCCC3)C(=O)N2[C@H]1C(=O)O
2. C[C@H](CCCC(C)(C)O)[C@H]1CC[C@H]2[C@@H]3CC=C4C[C@@H](O)CC[C@]4(C)[C@H]3CC[C@]12C
3. CCCCC[C@H](O)/C=C/[C@H]1[C@H](O)CC(=O)[C@@H]1CCCCCCC(=O)O
4. CCCOC(=O)c1ccccc1O
5. CC(/C=C/C=C(\C)C(=O)O[C@@H]1O[C@H](CO[C@@H]2O[C@H](CO)[C@@H](O)[C@H](O)[C@H]2O)[C@@H](O)[C@H](O)[C@H]1O)=C\C=C\C=C(C)\C=C\C=C(/C)C(=O)O[C@@H]1O[C@H](CO[C@@H]2O[C@H](CO)[C@@H](O)[C@H](O)[C@H]2O)[C@@H](O)[C@H](O)[C@H]1O
6. CNC(=O)OCc1cccc(COC(=O)NC)n1

RESULT:
-2.76
2.18
3.75
-1.94
1.72
2.4

List reported max response for each of these compounds:
1. CNC(=O)c1c(I)c(C(=O)NCC(=O)Nc2c(I)c(C(=O)O)c(I)c(C(=O)NCCO)c2I)c(I)c(N(C)C(C)=O)c1I
2. CCC[C@@H]1C[C@@H](C(=O)N[C@@H]([C@H]2O[C@H](SC)[C@H](O)[C@@H](O)[C@H]2O)[C@H](C)Cl)N(C)C1
3. CC(C)CCCCCCc1ccc(O)cc1
4. CC(C)(COP(=O)(O)OP(=O)(O)OC[C@H]1O[C@@H](n2cnc3c(N)ncnc32)[C@H](O)[C@@H]1OP(=O)(O)O)C(O)C(=O)NCCC(=O)NCCS (some centres not stated)
5. C[C@@](Cc1ccc(O)c(O)c1)(NN)C(=O)O
6. O=S(=O)(O)CCCS(=O)(=O)O

RESULT:
1: 10; 2: 4.39; 3: -10.4; 4: 7.71; 5: 2.59; 6: 0.835

List reported max response for each of these compounds:
1. CC(C)(CO)[C@@H](O)C(=O)NCCC(=O)NCCSSCCNC(=O)CCNC(=O)[C@H](O)C(C)(C)CO
2. CN1CCc2c(c3ccccc3n2Cc2ccccc2)C1
3. CC(C)CCC[C@@H](C)[C@H]1CC[C@H]2[C@@H]3CC[C@@H]4C[C@H](O)CC[C@]4(C)[C@H]3CC[C@]12C

RESULT:
[-0.241, 8.09, -12.6]

List reported max response for each of these compounds:
1. CC(C)[C@H](N)C(=O)OCC(CO)OCn1cnc2c(=O)[nH]c(N)nc21 (some centres not stated)
2. CCCCCCCCCCCCCCCCCC(=O)OC[C@@H](O)[C@H]1OC[C@H](O)[C@H]1O
3. C[Si](C)(C)O[Si](C)(C)C
4. CN(C)CCOc1ccc(/C(=C(/CCCl)c2ccccc2)c2ccccc2)cc1
5. CO

RESULT:
1. 3.14
2. -10
3. -5.55
4. -3.21
5. 17.7

###

Experiment: Drug repurposing screens with cells derived from glioblastoma tumor samples (AID 1345199); further: on the % scale 0 is the no-effect control and ±100 the full control effect; nearly all actives have a fitted effect of over 40% in size
Details: GBM patient neurospheres viability, ATP luminescence, 48 h; at 45.9 µM (top of the series); tumour line D
Inconclusive results are not listed.
activity, negative = cell killing strictly under -10% means label 1; at -10% or over means label 0.

QUERY: I'd appreciate it if you could check whether FC(F)(F)C(F)(F)C(F)(F)C(F)(F)C(F)(F)C(F)(F)F has activity, negative = cell killing smaller than -10%.
RESULT: label 1

QUERY: I'd appreciate it if you could check whether CC(C)CN(C[C@@H](OP(=O)(O)O)[C@H](Cc1ccccc1)NC(=O)O[C@H]1CCOC1)S(=O)(=O)c1ccc(N)cc1 has activity, negative = cell killing smaller than -10%.
RESULT: label 1

QUERY: I'd appreciate it if you could check whether CC(C)C1=CC2=CC[C@@H]3[C@](C)(CCC[C@@]3(C)C(=O)O)[C@H]2CC1 has activity, negative = cell killing smaller than -10%.
RESULT: label 0

QUERY: I'd appreciate it if you could check whether C=CC[C@@H]1/C=C(\C)C[C@H](C)C[C@H](OC)[C@H]2O[C@@](O)(C(=O)C(=O)N3CCCC[C@H]3C(=O)O[C@H](/C(C)=C/[C@@H]3CC[C@@H](O)[C@H](OC)C3)[C@H](C)[C@@H](O)CC1=O)[C@H](C)C[C@@H]2OC has activity, negative = cell killing smaller than -10%.
RESULT: label 1

QUERY: I'd appreciate it if you could check whether Cc1ncc(COP(=O)(O)O)c(CN)c1O has activity, negative = cell killing smaller than -10%.
RESULT: label 1

QUERY: I'd appreciate it if you could check whether Cc1ccc(C(C)(C)c2ccc(C)cc2)cc1 has activity, negative = cell killing smaller than -10%.
RESULT: label 0

QUERY: I'd appreciate it if you could check whether CC/C=C\C/C=C\C/C=C\CCCCCCCC(=O)O has activity, negative = cell killing smaller than -10%.
RESULT: label 0
